- tested_system: Cytochrome P450 1A2 (Homo sapiens)
- test: Cytochrome P450 Family 1 Subfamily A Member 2 (CYP1A2) small molecule antagonists: luciferase reporter qHTS assay (AID 1671199); note: nearly all actives have a fitted effect of over 50% in size; note: potency is the fitted concentration of half-maximal effect
- condition_details: P450-Glo CYP1A2 enzyme, luciferin luminescence, 1 h; series mostly up to 53 µM
Records with an inconclusive call do not appear. Active and inactive are the calls of the source. Calls come from the whole dose curve; as a rule, active = well fitted inhibition curve with a large enough effect in the repeat runs; inconclusive = weak or mixed curves; inactive = no such curve, though single readings can be large or run the other way.
quantity_kind: Potency

Guide cases for Potency, answers given:
{"columns": ["compound", "Potency"],
 "data": [
  ["CC(C)(O)CCC(C)(C)O", "inactive"],
  ["[Cl][In]([Cl])[Cl]", "37.7 µM (active)"],
  ["CC(C)(C)NCC(O)c1cc(O)cc(O)c1 (configuration not stated)", "inactive"],
  ["CC[C@H]1CN2CCc3cc(OC)c(OC)cc3[C@@H]2C[C@@H]1C[C@H]1NCCc2cc(OC)c(OC)cc21", "inactive"],
  ["Cc1cc(C(C)(C)C)c(O)c(C(C)(C)C)c1", "inactive"],
  ["CC(=O)OCC1=C(C(=O)O)N2C(=O)[C@@H](NC(=O)Cc3cccs3)[C@H]2SC1", "inactive"]
]}

Name the recorded Potency of CCn1cc(C(=O)O)c(=O)c2cc(F)c(N3CCNC(C)C3)c(F)c21 (configuration not stated) , assay system Cytochrome P450 1A2 (Homo sapiens).
inactive

Param request: Potency | system Cytochrome P450 1A2 (Homo sapiens) | item "CC(=O)N[C@@H](CS)C(=O)O"
inactive

The measurements presented in this section are drawn from PubChem BioAssay (Tox21).
